Data provenance is ChEMBL document CHEMBL1135247.

Target: Coagulation factor X (Homo sapiens)
Assay: Tested for inhibitory activity against Coagulation factor Xa
Observed property: pKi
Scale: pKi equals -log10([C]), with [C] in mol/L.

Q: Tell us which pKi value is on record for Nc1ncnc2cc(CN3CCN(Cc4nc5ccc(Cl)cc5[nH]4)CC3=O)ccc12
Result: 7.38

====

Biological target: Prothrombin (Homo sapiens)
pKi: −log10 of the molar value.
Observed property: pKi

Q: Tell us which pKi value is on record for Nc1ncnc2cc(CN3CCN(S(=O)(=O)c4nc5ccc(Cl)cc5[nH]4)CC3=O)ccc12
Result: < 5.40

====

Parameter pKi: see the listing below.
Biological target: Coagulation factor X (Homo sapiens, UniProt P00742)
Sequence (P00742 41-179 limits assumed): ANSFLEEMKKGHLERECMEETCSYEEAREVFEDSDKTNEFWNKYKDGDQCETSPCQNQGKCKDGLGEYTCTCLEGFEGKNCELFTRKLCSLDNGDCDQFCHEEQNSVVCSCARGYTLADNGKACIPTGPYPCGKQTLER
Sequence (P00742 235-488 limits assumed): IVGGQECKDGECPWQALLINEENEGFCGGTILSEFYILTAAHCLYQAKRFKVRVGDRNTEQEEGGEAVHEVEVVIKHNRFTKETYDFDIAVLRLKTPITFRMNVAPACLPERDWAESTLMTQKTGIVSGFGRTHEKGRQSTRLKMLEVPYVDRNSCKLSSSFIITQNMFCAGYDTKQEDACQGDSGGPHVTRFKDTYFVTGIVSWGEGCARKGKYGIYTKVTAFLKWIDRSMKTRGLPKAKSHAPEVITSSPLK
Assay: Inhibition of Coagulation factor Xa
Scale: pKi equals -log10([C]), with [C] in mol/L.

Nc1ncnc2cc(CN3CCN(Cc4nc5ccccc5[nH]4)CC3=O)ccc12	5.92
Nc1ncnc2cc(CN3CCN(Cc4nc5cc(Cl)ccc5o4)CC3=O)ccc12	5.92
Nc1ncnc2cc(CN3CCN(Cc4nc5ccc(Cl)cc5[nH]4)CC3=O)ccc12	8.00

Q: Tell us which pKi value is on record for Nc1ncnc2cc(CN3CCN(S(=O)(=O)c4nc5ccc(Cl)cc5[nH]4)CC3=O)ccc12
Result: 8.52

Q: Tell us which pKi value is on record for N=C(N)c1ccc(CN2CCN(Cc3nc4ccc(Cl)cc4[nH]3)CC2=O)cc1
Result: 7.40

====

Parameter pKi: see the listing below.
Molecular target: UniProt:P00742
Assay: Inhibition of Coagulation factor Xa
pKi: −log10 of the molar value.

Nc1ncnc2cc(CN3CCN(Cc4nc5ccc(Br)cc5[nH]4)CC3=O)ccc12	7.77
Nc1ncnc2cc(CN3CCN(Cc4nc5ccc(Cl)cc5s4)CC3=O)ccc12	< 5.92

Okay, next one:
Q: Tell us which pKi value is on record for Nc1ncnc2cc(CN3CCN(Cc4nc5cc(Cl)ccc5[nH]4)CC3)ccc12
Result: < 5.92
